Where do these numbers come from? They come from patent US20260048138A1.

Measured IC50 accompanies every entry in the list below.
tested on: MDA-MB-453; experiment: Inhibition of cell proliferation by payloads in vitro (CCK-8); format: cell-based; settings: Homo sapiens, MDA-MB-453, 144 h, read-out: IC50, nM MDA-MB-453; payloads, proliferation, 6 days, CCK-8
Respond numerically; units are nM and should not be typed.

COc1ncc(-c2ccc3ncc4c(c3c2)n(C2CC2)c(=O)n4C)cc1NS(=O)(=O)C1CCNCC1: 0.39
COc1ncc(-c2ccc3ncc4c(c3c2)n(C2CCC2)c(=O)n4C)cc1NS(=O)(=O)N1CCNCC1: 0.064
COc1ncc(-c2ccc3ncc4c(c3c2)n(C2CC2)c(=O)n4C)cc1NS(=O)(=O)N1CCN(CCO)CC1: 6.5
COc1ncc(-c2ccc3ncc4c(c3c2)n(C2COC2)c(=O)n4C)cc1NS(=O)(=O)N1CCNCC1: 61.6
COc1ncc(-c2ccc3ncc4nnc(C5CC5)n4c3c2)cc1NS(=O)(=O)N1CCN(C)CC1 [Reference compound 1, reference compound]: 7.9
COc1ncc(-c2ccc3ncc4c(c3c2)n(C2CC(F)(F)C2)c(=O)n4C)cc1NS(=O)(=O)N1CCNCC1: 0.34

Exercise: Give a short answer stating reported IC50 for `COc1ncc(-c2ccc3ncc4c(c3c2)n([C@H]2C[C@H](O)C2)c(=O)n4C)cc1NS(=O)(=O)N1CCNCC1` .
Solution: 0.3
